FYI, the data here is from patent US9938269B2.

test: Determination of the microsomal half-life, human liver microsomes; conditions: human, liver microsomes, pH 7.4
Counter-ions that a name gives are not always drawn.
Can you tell me microsomal CLint at 0.5 μM for the items I'm about to list?

Known results for compounds:
compound: CN(C)Cc1ccc(-c2cccc3c2C(=O)N(CCc2ccc4ccccc4n2)C3)cc1 [Example 188, (dihydrochloride)]
microsomal CLint at 0.5 μM: 100 to 220 µL/min/mg

compound: Cn1c(CCN2Cc3cccc(N4CCOCC4)c3C2=O)nc2cc(F)ccc21 [Example 262]
microsomal CLint at 0.5 μM: 100 to 220 µL/min/mg

Give microsomal CLint at 0.5 μM for each listed item.
1. Cn1nccc1-c1cccc2c1CN(CCc1ccc3ccccc3n1)C2=O [Example 202, trifluoroacetate]
2. O=C1c2c(cccc2N2CCOCC2)CN1CCc1ccc2cc(F)ccc2n1 [Example 115, trifluoroacetate]
3. Cn1nccc1-c1ccc(F)c2c1C(=O)N(CCc1cn3ccccc3n1)C2 [Example 382]
4. O=C1c2c(-c3cncnc3)cc[n+]([O-])c2CN1CCc1ccc2ccccc2n1 [Example 296]
5. Cn1c(CCN2Cc3cccc(-c4cncnc4)c3C2=O)nc2ccccc21 [Example 197]
6. Cn1nccc1-c1cccc2c1C(=O)N(CCc1cn3ccccc3n1)C2 [Example 239]

Result ::
1. 100 to 220 µL/min/mg
2. 100 to 220 µL/min/mg
3. < 100 µL/min/mg
4. < 100 µL/min/mg
5. 100 to 220 µL/min/mg
6. < 100 µL/min/mg

Give microsomal CLint at 0.5 μM for each listed item.
1. O=C1c2c(cccc2-c2ccncc2)CN1CCc1nc2ccccc2s1 [Example 223, trifluoroacetate]
2. O=C1c2cccc(-c3ccncc3)c2CN1CCc1cn2ccccc2n1 [Example 316]

Result ::
1. < 100 µL/min/mg
2. < 100 µL/min/mg

###

experiment: Determination of the microsomal half-life, rat liver microsomes; conditions: rat, liver microsomes, pH 7.4
Structures can show the parent of a compound that is named as a salt.
Can you tell me microsomal CLint at 0.5 μM for the items I'm about to list?

Give microsomal CLint at 0.5 μM for each listed item.
1. O=C1c2c(-c3ccncc3)ccnc2CN1CCc1nc2ccc(Cl)cc2s1
2. Cc1cccnc1CCN1Cc2nccc(N3CCOCC3)c2C1=O
3. COc1ccc2nc(CCN3Cc4cccc(N5CCOCC5)c4C3=O)ccc2c1 [Example 116, hydrochloride]

Result ::
["100 to 220 µL/min/mg", "< 100 µL/min/mg", "< 100 µL/min/mg"]

Give microsomal CLint at 0.5 μM for each listed item.
1. CN1CCN(Cc2cccc3c2C(=O)N(CCc2ccc4ccccc4n2)C3)CC1
2. O=C1c2c(N3CCS(=O)(=O)CC3)ccnc2CN1CCc1ccc2ccccc2n1
3. Cc1ccc2c(c1)nc(CCN1Cc3nccc(-c4ccncc4)c3C1=O)n2C
4. O=C1c2c(-c3cncnc3)ccnc2CN1CCc1nc2ccccc2s1
5. Cn1cnc2ccc(-c3cccc4c3C(=O)N(CCc3ccc5ccccc5n3)C4)cc21 [Example 8, trifluoroacetate]
6. O=C1c2c(-c3ccncc3)ccnc2CN1CCc1ccc2sccc2n1

Result ::
["< 100 µL/min/mg", "< 100 µL/min/mg", "< 100 µL/min/mg", "< 100 µL/min/mg", "100 to 220 µL/min/mg", "100 to 220 µL/min/mg"]

Give microsomal CLint at 0.5 μM for each listed item.
1. COc1ccc(-c2cc[nH]n2)c2c1C(=O)N(CCc1cn3ccccc3n1)C2
2. Cn1ccc(-c2ccnc3c2C(=O)N(CCc2ccc4ccccc4n2)C3)c1

Result ::
1. < 100 µL/min/mg
2. > 220 µL/min/mg
